Molecular target: CB1 receptor (Homo sapiens)
Sequence (P21554 whole entry): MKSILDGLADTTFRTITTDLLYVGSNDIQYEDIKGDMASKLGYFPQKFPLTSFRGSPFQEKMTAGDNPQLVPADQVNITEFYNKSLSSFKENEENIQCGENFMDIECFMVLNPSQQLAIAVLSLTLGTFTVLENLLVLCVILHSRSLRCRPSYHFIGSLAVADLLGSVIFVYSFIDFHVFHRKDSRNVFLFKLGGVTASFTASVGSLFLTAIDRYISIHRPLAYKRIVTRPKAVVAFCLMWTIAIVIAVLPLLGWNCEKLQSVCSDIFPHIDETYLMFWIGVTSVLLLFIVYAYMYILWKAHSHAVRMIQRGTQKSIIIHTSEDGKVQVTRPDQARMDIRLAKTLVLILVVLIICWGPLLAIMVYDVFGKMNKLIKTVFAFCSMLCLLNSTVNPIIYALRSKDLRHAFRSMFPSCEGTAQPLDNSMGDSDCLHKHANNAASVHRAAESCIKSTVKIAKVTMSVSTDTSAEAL
Assay: biochemical
Assay type: binding
Design: expressed in transfected cells; host or cells: CHO cells (membrane preparation)
Details: versus 0.1 nM [3H]CP55,940; CHO cell membranes; mean ± SEM of three to five experiments; read-out: Ki ± SEM Human CB1
Please respond with true (1) when measured Ki is strictly beneath 0.002 µM, and with false (0) in all other cases.

COMPOUND | CLASS NAME
CCCCCn1cc(C(=O)C2C(C)(C)C2(C)C)c2ccccc21 | false (0)
O=C(Oc1cccc2cccnc12)c1cn(CC2CCCCC2)c2ccccc12 | true (1)
O=C(NC12CC3CC(CC(C3)C1)C2)c1nn(Cc2ccc(F)cc2)c2ccccc12 | true (1)
CCCCCn1cc(C(=O)NCc2ccccc2)c2ccccc21 | false (0)
CC1(C)C(C(=O)c2nn(CCCCCF)c3ccccc23)C1(C)C | false (0)
CC1(C)C(C(=O)c2cn(Cc3ccc(F)cc3)c3ccccc23)C1(C)C | false (0)
CC1(C)C(C(=O)c2cn(CCCCCF)c3ccccc23)C1(C)C | false (0)
CCCCCn1cc(C(=O)Nc2ccccc2)c2ccccc21 | false (0)
O=C(Oc1cccc2ccccc12)c1cn(CCCCCF)c2ccccc12 | true (1)
Cc1c(C(=O)C2C(C)(C)C2(C)C)c2ccccc2n1CCCCCF | false (0)
CCCCCn1cc(C(=O)Oc2cccc3cccnc23)c2ccccc21 | true (1)
Cc1ccc(C(=O)c2cn(CCCCCF)c3ccccc23)c2ccccc12 | true (1)
O=C(Nc1cccc2ccccc12)c1cn(CCCCCCl)c2ccccc12 | false (0)
O=C(Nc1ccc2ccccc2c1)c1cn(CCCCCF)c2ccccc12 [Compound 7, 5F-NNEI-2-naphthyl-isomer] | false (0)
O=C(Oc1cccc2ccccc12)c1cn(Cc2ccc(F)cc2)c2ccccc12 | true (1)
CCCCCn1nc(C(=O)c2cccc3ccccc23)c2ccccc21 | false (0)

---

Biological target: human GPR55 (Homo sapiens)
Construct: β-galactosidase enzyme fragment (PathHunter complementation tag)
Sequence (Q9Y2T6 whole entry, the tested form may be a part): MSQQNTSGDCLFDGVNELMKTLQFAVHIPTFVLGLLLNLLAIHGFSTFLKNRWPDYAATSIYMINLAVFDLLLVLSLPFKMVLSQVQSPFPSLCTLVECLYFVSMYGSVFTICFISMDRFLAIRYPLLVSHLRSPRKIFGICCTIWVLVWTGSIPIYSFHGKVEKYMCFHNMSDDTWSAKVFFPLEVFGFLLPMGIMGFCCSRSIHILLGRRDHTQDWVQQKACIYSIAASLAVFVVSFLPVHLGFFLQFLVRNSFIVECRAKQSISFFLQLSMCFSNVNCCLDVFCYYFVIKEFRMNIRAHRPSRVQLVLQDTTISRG
Assay: β-Arrestin recruitment assay (PathHunter) at GPR55
Format: cell-based
Conditions: Human GPR55 IC50, β-arrestin assay, antagonist mode
READOUT KIND: IC50

MOLECULE | TARGET SYSTEM | READOUT KIND | RECORDED MEASUREMENT
CCCCCn1nc(C(=O)Nc2cccc3ccccc23)c2ccccc21 | human GPR55 (Homo sapiens) | IC50 | > 10 µM
CCCCCn1cc(C(=O)Nc2cccc3ccccc23)c2ccccc21 | human GPR55 (Homo sapiens) | IC50 | > 10 µM
CCCCCn1nc(C(=O)c2cccc3ccccc23)c2ccccc21 | human GPR55 (Homo sapiens) | IC50 | 8.2 µM
O=C(Nc1cccc2ccccc12)c1nn(CCCCCF)c2ccccc12 | human GPR55 (Homo sapiens) | IC50 | > 10 µM
CCCCCn1cc(C(=O)Oc2cccc3cccnc23)c2ccccc21 | human GPR55 (Homo sapiens) | IC50 | > 10 µM
CCCCCn1nc(C(=O)Nc2cccc3cccnc23)c2ccccc21 | human GPR55 (Homo sapiens) | IC50 | > 10 µM

---

Target: human GPR18 (Homo sapiens, UniProt Q14330)
Construct: β-galactosidase enzyme fragment (PathHunter complementation tag)
Sequence (Q14330 whole entry, the tested form may be a part): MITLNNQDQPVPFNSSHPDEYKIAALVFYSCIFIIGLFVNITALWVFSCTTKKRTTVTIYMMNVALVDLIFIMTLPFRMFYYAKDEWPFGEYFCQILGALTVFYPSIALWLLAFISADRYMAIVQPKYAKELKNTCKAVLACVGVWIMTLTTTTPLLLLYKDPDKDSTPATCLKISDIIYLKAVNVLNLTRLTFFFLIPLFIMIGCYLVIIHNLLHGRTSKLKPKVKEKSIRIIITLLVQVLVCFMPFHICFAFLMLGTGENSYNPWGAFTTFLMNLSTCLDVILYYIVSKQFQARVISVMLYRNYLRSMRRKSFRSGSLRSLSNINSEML
Experiment: β-Arrestin recruitment assay (PathHunter) at GPR18
Format: cell-based
Settings: β-arrestin assay; percent in brackets beside EC50 >10 µM

MOLECULE | MEASURE UNIT | Human GPR18 % activation
O=C(Nc1cccc2ccccc12)c1cn(CCCCCF)c2ccccc12 | % | −3
O=C(Oc1cccc2ccccc12)c1cn(CCCCCF)c2ccccc12 | % | −8
O=C(NCc1ccccc1)c1cn(CCCCCF)c2ccccc12 | % | 13
CCCCCn1cc(C(=O)NCc2ccccc2)c2ccccc21 | % | −9
O=C(Oc1cccc2cccnc12)c1cn(CCCCCF)c2ccccc12 | % | −5
O=C(c1cccc2ccccc12)c1nn(CCCCCF)c2ccccc12 | % | 18
CCc1ccc(C(=O)c2cn(CCCCCF)c3ccccc23)c2ccccc12 | % | 14
CC1(C)C(C(=O)c2cn(CC3CCOCC3)c3ccccc23)C1(C)C | % | 6

---

Target: human GPR18 (Homo sapiens)
Construct: β-galactosidase enzyme fragment (PathHunter complementation tag)
Test: β-Arrestin recruitment assay (PathHunter) at GPR18
Type: cell-based
Settings: read-out: Human GPR18 EC50; β-arrestin assay, agonist mode
READOUT KIND: EC50

COMPOUND | RECORDED MEASUREMENT
COc1cccc2c(C(=O)C3C4(C)CCC(C4)C3(C)C)c(C)n(CCN3CCOCC3)c12 (centres unmarked) | > 10 µM
CN1CCCCC(Cn2cc(C(=O)C3C(C)(C)C3(C)C)c3ccccc32)C1 (stereo not drawn) [Compound 44, AB005-azepane-isomer] | > 10 µM

---

Biological target: CB2 receptor (Homo sapiens, UniProt P34972)
Sequence (P34972 whole entry): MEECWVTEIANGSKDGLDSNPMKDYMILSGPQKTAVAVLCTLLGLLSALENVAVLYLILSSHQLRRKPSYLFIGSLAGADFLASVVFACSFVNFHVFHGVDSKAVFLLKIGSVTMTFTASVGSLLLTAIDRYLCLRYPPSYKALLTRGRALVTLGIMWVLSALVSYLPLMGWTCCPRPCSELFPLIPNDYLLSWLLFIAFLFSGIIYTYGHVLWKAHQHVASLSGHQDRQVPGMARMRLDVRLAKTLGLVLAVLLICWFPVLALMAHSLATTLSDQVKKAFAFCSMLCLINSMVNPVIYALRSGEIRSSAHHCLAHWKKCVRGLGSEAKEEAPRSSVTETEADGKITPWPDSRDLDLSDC
Assay: biochemical
Type: binding
Parameters: expressed in transfected cells; host or cells: CHO cells (membrane preparation)
Details: versus 0.1 nM [3H]CP55,940; CHO cell membranes; mean ± SEM of three to five experiments; read-out: Ki ± SEM Human CB2
Please respond with true (1) when measured Ki is strictly beneath 1 nM, and with false (0) in all other cases.

MOLECULE | CLASS NAME
CCCCCn1cc(C(=O)C2C(C)(C)C2(C)C)c2ccccc21 | false (0)
CC1(C)C(C(=O)c2cn(CC3CCOCC3)c3ccccc23)C1(C)C | true (1)
O=C(Oc1cccc2ccccc12)c1cn(CCCCCF)c2ccccc12 | true (1)
CCCCCn1cc(C(=O)NC23CC4CC(CC(C4)C2)C3)c2ccccc21 | false (0)
O=C(Oc1cccc2cccnc12)c1cn(CCCCCF)c2ccccc12 | true (1)
O=C(c1cccc2ccccc12)c1nn(CCCCCF)c2ccccc12 | false (0)

---

Biological target: CB1 receptor (Homo sapiens)
Test: biochemical
Format: binding
Set-up: expressed in transfected cells; host or cells: CHO cells (membrane preparation)
Settings: versus 0.1 nM [3H]CP55,940; CHO cell membranes; mean ± SEM of three to five experiments; read-out: Ki ± SEM Human CB1
pKi: −log10 of the molar value.
Values of pKi greater than or equal to 8 map to fulfilled; values below map to not fulfilled.

MOLECULE | CLASS NAME
CCCCCn1cc(C(=O)C23CC4CC(CC(C4)C2)C3)c2ccccc21 | not fulfilled
COc1cccc2c(C(=O)C3C4(C)CCC(C4)C3(C)C)c(C)n(CCN3CCOCC3)c12 (centres unmarked) | not fulfilled
CCCCCn1nc(C(=O)Oc2cccc3ccccc23)c2ccccc21 | fulfilled
Cc1ccc(C(=O)c2cn(CCCC(C)F)c3ccccc23)c2ccccc12 (stereo not drawn) [Compound 32, MAM-2201-4-fluoropentyl-isomer] | fulfilled
O=C(Oc1cccc2ccccc12)c1nn(CCCCCF)c2ccccc12 | fulfilled
COc1ccccc1CC(=O)c1cn(CCC2CCCCC2)c2ccccc12 | not fulfilled
CCCCCn1cc(C(=O)Nc2cccc3ccccc23)c2ccccc21 | fulfilled

---

Molecular target: human GPR18 (Homo sapiens)
Construct: β-galactosidase enzyme fragment (PathHunter complementation tag)
Test: β-Arrestin recruitment assay (PathHunter) at GPR18
Type: cell-based
Experimental: Recruitment of β-arrestin to the respective receptor was detected by using β-galactosidase enzyme fragment complementation technology (β-arrestin PathHunter™ assay, DiscoverX, Fremont, CA, USA) as previously described. Data were obtained from three independent experiments, performed in duplicates. Data were analyzed using Graph Pad Prism Version 4.02 (San Diego, CA, USA).
Quick list: IC50 per entry.
READOUT KIND: IC50

MOLECULE | READOUT KIND | RECORDED MEASUREMENT
O=C(c1cccc2ccccc12)c1nn(CCCCCF)c2ccccc12 | IC50 | > 10 µM
CCc1ccc(C(=O)c2cn(CCCCCF)c3ccccc23)c2ccccc12 | IC50 | > 10 µM
CC1(C)C(C(=O)c2nn(CCCCCF)c3ccccc23)C1(C)C | IC50 | ~10 µM

---

Quick list: Human GPR55 % activation per entry.
Target: human GPR55 (Homo sapiens)
Construct: β-galactosidase enzyme fragment (PathHunter complementation tag)
Assay: β-Arrestin recruitment assay (PathHunter) at GPR55
Assay type: cell-based
Conditions: β-arrestin assay; percent in brackets beside EC50 >10 µM

COMPOUND | Human GPR55 % activation / %
CCCCCn1cc(C(=O)Oc2cccc3cccnc23)c2ccccc21 | 15
CN1CCCCC(Cn2cc(C(=O)C3C(C)(C)C3(C)C)c3ccccc32)C1 (stereo not drawn) [Compound 44, AB005-azepane-isomer] | 21
O=C(Oc1cccc2cccnc12)c1cn(CC2CCCCC2)c2ccccc12 | 9
CCCCCn1cc(C(=O)C2C(C)(C)C2(C)C)c2ccccc21 | −5
O=C(Nc1cccc2ccccc12)c1cn(CCCCCCl)c2ccccc12 | 28
O=C(Oc1cccc2ccccc12)c1cn(CCCCCF)c2ccccc12 | 17
CCc1ccc(C(=O)c2cn(CCCCCF)c3ccccc23)c2ccccc12 | −24
CCCCCn1cc(C(=O)Nc2cccc3ccccc23)c2ccccc21 | 26
O=C(Oc1cccc2ccccc12)c1cn(Cc2ccc(F)cc2)c2ccccc12 | 11
O=C(NC12CC3CC(CC(C3)C1)C2)c1cn(CCCCCF)c2ccccc12 | 1
O=C(Nc1cccc2ccccc12)c1nn(CCCCCF)c2ccccc12 | 38
CCCC(F)Cn1cc(C(=O)C2C(C)(C)C2(C)C)c2ccccc21 (stereo not drawn) [Compound 39, XLR-11-2-fluoropentyl-isomer] | −8
CCCCCn1cc(C(=O)NCc2ccccc2)c2ccccc21 | −5
O=C(Nc1ccc2ccccc2c1)c1cn(CCCCCF)c2ccccc12 [Compound 7, 5F-NNEI-2-naphthyl-isomer] | 19
CC1(C)C(C(=O)c2cn(CC3CCOCC3)c3ccccc23)C1(C)C | 8
CC1(C)C(C(=O)c2cn(CCN3CCOCC3)c3ccccc23)C1(C)C | −1
O=C(NCc1ccccc1)c1cn(CCCCCF)c2ccccc12 | −3
O=C(Nc1cccc2ccccc12)c1cn(CCCCCF)c2ccccc12 | 25
CCCCCn1nc(C(=O)Nc2cccc3ccccc23)c2ccccc21 | 27
O=C(Oc1cccc2cccnc12)c1cn(Cc2ccc(F)cc2)c2ccccc12 | 5
O=C(Oc1cccc2ccccc12)c1nn(CCCCCF)c2ccccc12 | 21
CC1(C)C(C(=O)c2cn(Cc3ccc(F)cc3)c3ccccc23)C1(C)C | −3

These measurements were taken from paper PMC4929166.
